inhibition in vivo at 20 mg/kg listing for selected compounds.
# Tested on: Rattus norvegicus
# Protocol details: Antiinflammatory activity in Wistar albino rat assessed as inhibition of carrageenan-induced paw edema dosed at 20 mg/kg in plantar region of paw administered 30 mins before carrageenan challenge measured 3 hrs post carrageenan-induced inflammation
# Type: functional
Metric: inhibition in vivo at 20 mg/kg

- Cpd smiles: "Brc1ccc([C@H]2CC(c3ccccc3)=NN2c2ncc(Br)cn2)cc1"
  Metric: "inhibition in vivo at 20 mg/kg"
  Result: "76%"
- Cpd smiles: "COc1ccc([C@H]2CC(c3ccc(Cl)cc3)=NN2c2ncc(Br)cn2)cc1"
  Metric: "inhibition in vivo at 20 mg/kg"
  Result: "73%"
- Cpd smiles: "Cc1ccc([C@H]2CC(c3ccccc3)=NN2c2ncc(Br)cn2)cc1"
  Metric: "inhibition in vivo at 20 mg/kg"
  Result: "79%"
- Cpd smiles: "Clc1ccc([C@H]2CC(c3ccccc3)=NN2c2ncc(Br)cn2)cc1"
  Metric: "inhibition in vivo at 20 mg/kg"
  Result: "78%"
- Cpd smiles: "Clc1ccc(C2=NN(c3ncc(Br)cn3)[C@@H](c3ccccc3)C2)cc1"
  Metric: "inhibition in vivo at 20 mg/kg"
  Result: "75%"
